Numbers sourced from ChEMBL document CHEMBL3885881.

# maps each entry to its ASPARTATE AMINOTRANSFERASE
Organism: Rattus norvegicus
Assay: DrugMatrix - Regimen: Daily Repeat
Assay type: toxicity, organism-based, Sprague-Dawley
Set-up: regimen Daily Repeat, gender Male, age 6-8 weeks
Assay Context: in vivo, po, 0 mg/kg, 72 h, tissue Plasma, route oral GAVAGE, dose level Control, time 3 day, […]
The answer is to be given in u/L; state only the numeric part.

INSERT INTO assay_data (compound, data_value) VALUES
  ('COC1=CC(=O)C[C@@H](C)[C@]12Oc1c(Cl)c(OC)cc(OC)c1C2=O', 98.33),
  ('CCCC[C@@H](CC)COC(=O)c1ccccc1C(=O)OC[C@@H](CC)CCCC [BIS(2-ETHYLHEXYL)PHTHALATE]', 87.5),
  ('Oc1c(Cl)cc(Cl)cc1Sc1cc(Cl)cc(Cl)c1O', 81.17),
  ('Cn1cnc([N+](=O)[O-])c1Sc1ncnc2nc[nH]c12', 101),
  ('COCc1c(C(C)C)nc(C(C)C)c(/C=C/[C@@H](O)C[C@@H](O)CC(=O)O)c1-c1ccc(F)cc1', 88),
  ('COc1ccc2c(c1)c(CC(=O)OCC(=O)O)c(C)n2C(=O)c1ccc(Cl)cc1', 87.83),
  ('C=CCN', 81.33),
  ('CC(=O)[C@H]1CC[C@H]2[C@@H]3CCC4=CC(=O)CC[C@]4(C)[C@H]3CC[C@]12C', 102.67);

Note to self: ASPARTATE AMINOTRANSFERASE recorded for CCCCCCCCCc1ccc(O)cc1 was 88

Just so you know, measured ASPARTATE AMINOTRANSFERASE for CN(C)CCCC1(c2ccc(F)cc2)OCc2cc(C#N)ccc21 (stereo not given) came out at 102.67

Kindly note the recorded ASPARTATE AMINOTRANSFERASE for CSc1ccc2c(c1)N(CCC1CCCCN1C)c1ccccc1S2 (stereo not given) , which is 85.17

Form field ASPARTATE AMINOTRANSFERASE, entry CC(C)n1c(/C=C/C(O)CC(O)CC(=O)O)c(-c2ccc(F)cc2)c2ccccc21 (stereo not given) : 81.17

Value of measured ASPARTATE AMINOTRANSFERASE for the entry c1ccc2[nH]c(-c3cscn3)nc2c1 : 87.5

The measured ASPARTATE AMINOTRANSFERASE associated with CC(C)(Oc1ccc(CCNC(=O)c2ccc(Cl)cc2)cc1)C(=O)O [BEZAFIBRATE] reads 77.67

Reported ASPARTATE AMINOTRANSFERASE ( CC1=C(/C=C/C(C)=C/C=C/C(C)=C\C(=O)O)C(C)(C)CCC1 ) = 83.17
